Record form. Attribute: Percent Blocking of Ang-2FD Binding to Tie-2. Fill in for each entry.
- TARGET: Dimeric Human Ang-2FD conjugated to human IgG1 (human)
- Sequence (chain, as listed by the source limits assumed): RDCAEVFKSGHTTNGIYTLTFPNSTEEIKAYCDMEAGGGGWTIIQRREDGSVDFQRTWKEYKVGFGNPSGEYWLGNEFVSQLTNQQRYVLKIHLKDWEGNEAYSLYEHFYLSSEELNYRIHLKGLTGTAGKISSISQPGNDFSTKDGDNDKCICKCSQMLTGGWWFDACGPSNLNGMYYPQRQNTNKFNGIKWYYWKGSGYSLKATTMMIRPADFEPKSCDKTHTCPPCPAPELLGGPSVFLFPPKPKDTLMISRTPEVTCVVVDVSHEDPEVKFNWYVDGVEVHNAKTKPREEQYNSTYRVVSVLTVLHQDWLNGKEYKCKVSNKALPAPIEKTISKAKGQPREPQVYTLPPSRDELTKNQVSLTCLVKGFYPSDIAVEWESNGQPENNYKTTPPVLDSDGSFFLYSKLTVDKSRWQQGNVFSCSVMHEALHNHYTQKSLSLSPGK
- EXPERIMENT DESCRIPTION: ELISA, 16.67 nM antibody, Ang-2FD-hFc binding to coated hTie-2-mFc
Express the result in % but write the number alone.

# input Need Percent Blocking of Ang-2FD Binding to Tie-2, item H1M728N (antibody, V domains shown) VH: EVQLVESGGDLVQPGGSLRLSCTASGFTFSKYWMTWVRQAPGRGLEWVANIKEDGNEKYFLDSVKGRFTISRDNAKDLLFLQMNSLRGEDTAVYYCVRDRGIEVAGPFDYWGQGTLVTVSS VL: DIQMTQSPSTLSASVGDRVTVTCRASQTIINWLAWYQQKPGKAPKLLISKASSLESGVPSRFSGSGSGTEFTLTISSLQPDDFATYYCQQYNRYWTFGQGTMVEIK
# output 98.5

# input Need Percent Blocking of Ang-2FD Binding to Tie-2, item H2M730N (antibody, V domains shown) VH: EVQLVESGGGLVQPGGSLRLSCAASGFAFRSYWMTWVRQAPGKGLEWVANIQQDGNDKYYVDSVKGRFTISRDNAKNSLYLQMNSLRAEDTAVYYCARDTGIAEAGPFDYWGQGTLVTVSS VL: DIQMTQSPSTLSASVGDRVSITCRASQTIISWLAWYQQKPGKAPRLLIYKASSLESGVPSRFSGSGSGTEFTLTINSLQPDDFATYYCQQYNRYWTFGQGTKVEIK
# output 98.9

# input Need Percent Blocking of Ang-2FD Binding to Tie-2, item H2M742N (antibody, V domains shown) VH: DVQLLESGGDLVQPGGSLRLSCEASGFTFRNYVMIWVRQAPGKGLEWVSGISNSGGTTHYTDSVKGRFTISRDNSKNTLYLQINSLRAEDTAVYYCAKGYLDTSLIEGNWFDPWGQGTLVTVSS VL: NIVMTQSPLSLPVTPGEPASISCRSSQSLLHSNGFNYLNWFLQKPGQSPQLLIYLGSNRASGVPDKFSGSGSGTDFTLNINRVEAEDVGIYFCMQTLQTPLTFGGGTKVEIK
# output 99.6

Source: patent US20130129722A1
